- TEST_NAME: chemical genetic growth profiling, strain panel (AID 1159580);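 further: tested at 20 µM; growth read once vehicle control cultures reached saturation at 30 °C; 1 = growth at the plate median or of vehicle wells; lower values mean less growth of the strain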
- CONDITION_CONTEXT: S. cerevisiae deletion strains, growth OD, locus YHR030C, strain SLT2, active compounds read low
The campaign covered roughly 5,500 compounds. About 2,000 (36%) were called active. About 18% were inconclusive and are not listed. The list shows a part of the results.
In this scheme, each record receives a class according to its normalized growth; the ranges are bin 1: < 0.7; bin 2: ≥ 0.7 and < 1; bin 3: ≥ 1

Query: Hi there! Could you help me figure out the category for "OCCc1ccccc1" please?
Response: bin 2

Query: Hi there! Could you help me figure out the category for COc1cc([C@@H]2c3cc4c(cc3[C@@H](O)C3COC(=O)C32)OCO4)cc(OC)c1O (stereo partly specified) please?
Response: bin 3

Query: Hi there! Could you help me figure out the category for "CC(=O)/C(C#N)=N\Nc1ccc(F)cc1" please?
Response: bin 1

Query: Hi there! Could you help me figure out the category for "O=C(NNC(=S)Nc1cccc(Cl)c1)C1CC1" please?
Response: bin 1

Query: Hi there! Could you help me figure out the category for CCOC(=O)C1C(c2c(F)cccc2Cl)C(C(=O)OCC)C(O)(C(F)(F)F)NC1(O)C(F)(F)F (stereo unspecified) please?
Response: bin 2

Query: Hi there! Could you help me figure out the category for "N/C(Cn1ccc(C(F)(F)F)n1)=N/OS(=O)(=O)c1cccc(Cl)c1Cl" please?
Response: bin 3

Query: Hi there! Could you help me figure out the category for "Oc1c(Cl)cc(Cl)cc1C=Nc1nc(-c2ccc3ccccc3c2)cs1" please?
Response: bin 1
